# Tested on: NCI-H23 lung
# measurementNotes: NCI-60 one-dose screen, 48 h (100 = growth as untreated, 0 = no growth, -100 = all killed)
# conditionParameters: 10 µM unless noted
The panel holds about 83,000 compounds, 20% with a hit somewhere; the sample as a whole holds those more often.
The entries below are paired with their reported growth.
assayEndpoint: growth (%)

compound=COc1ccc(-c2csc3c2-n2cccc2C3=O)cc1O assayendpoint=growth readoutvalue=11.7
compound=NC(=S)N/N=C1\c2ccccc2-c2c(F)c(F)c(F)c(F)c21 assayendpoint=growth readoutvalue=72.4
compound=O=c1c2c(=NCCN3CCCC3)cc3c(=O)n(CCCN4CCOCC4)c(=O)c4c(-c5ccc(CN6CCCC6)cc5)cc(c(O)n1CCCN1CCOCC1)c2c4-3 assayendpoint=growth readoutvalue=-70.9
compound="COc1ccc(/C=N/OCC(O)CN2CCC(O)CC2)cc1OC1CCCC1 (stereo not given)" assayendpoint=growth readoutvalue=106
compound="O=C1NC(=O)C2(CCCC2C(=O)O)N1 (stereo not given)" assayendpoint=growth readoutvalue=98.3
compound=CC(=O)OC[C@]1(C)C=C2C(=O)[C@](C)(O)C3(CC3)C(C)=C2[C@H]1OC(C)=O assayendpoint=growth readoutvalue=75
compound=CN1CCN(C(=O)OCCOCCOC(=O)N2CCN(C)CC2)CC1 assayendpoint=growth readoutvalue=97.6
compound=CCC(=O)Nc1nnc(Cc2ccc(OC)c(OC)c2)s1 assayendpoint=growth readoutvalue=60.4
compound=Oc1cccc(Nc2nc(-c3ccccn3)cs2)c1 assayendpoint=growth readoutvalue=107
compound=Cc1oc2c(c1C(=O)N1CC[C@@H](N)C1)C(=O)c1c(c(O)c3ccccc3c1O)C2=O assayendpoint=growth readoutvalue=45.3
